Each record here notes measured koff.
target: recombinant cynomolgus monkey CD3ε/δ heterodimer (cynomolgus monkey) (UniProt Q95LI5); experiment: BLI (Octet), antigen on anti-Penta His sensor, antibody 50 nM
Sequence (Q95LI5 22-117, stated change not applied, chain 1 of 2): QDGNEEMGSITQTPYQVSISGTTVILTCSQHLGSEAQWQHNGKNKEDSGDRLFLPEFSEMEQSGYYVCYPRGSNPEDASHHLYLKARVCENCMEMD
Sequence (Q95LI8 22-105, stated change not applied, chain 2 of 2, further chain): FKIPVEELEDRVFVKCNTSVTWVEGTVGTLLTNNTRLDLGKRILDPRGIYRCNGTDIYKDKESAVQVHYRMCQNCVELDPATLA
I only need the number, in s⁻¹, no unit after it.

BINDER	koff [s⁻¹]
B08 (antibody, human IgG1, lambda, L234A L235A, V domains shown) VH: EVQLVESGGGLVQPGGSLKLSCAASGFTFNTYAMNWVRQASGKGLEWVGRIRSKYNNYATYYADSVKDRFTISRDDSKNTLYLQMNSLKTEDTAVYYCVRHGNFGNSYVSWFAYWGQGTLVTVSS VL: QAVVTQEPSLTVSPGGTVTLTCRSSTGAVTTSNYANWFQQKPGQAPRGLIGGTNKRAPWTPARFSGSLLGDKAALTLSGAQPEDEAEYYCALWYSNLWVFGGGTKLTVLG	0.00525
A08 (antibody, human IgG1, lambda, L234A L235A, V domains shown) VH: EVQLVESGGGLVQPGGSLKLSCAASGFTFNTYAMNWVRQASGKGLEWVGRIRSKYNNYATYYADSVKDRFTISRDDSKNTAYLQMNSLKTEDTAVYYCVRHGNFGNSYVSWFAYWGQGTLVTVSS VL: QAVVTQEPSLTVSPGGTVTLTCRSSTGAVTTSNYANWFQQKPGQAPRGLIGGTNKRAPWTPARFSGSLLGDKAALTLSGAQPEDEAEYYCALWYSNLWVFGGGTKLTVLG	0.00321
G16 (antibody, human IgG1, lambda, L234A L235A, V domains shown) VH: EVQLVESGGGLVQPGGSLKLSCAASGFTFNTYAMNWVRQASGKGLEWVARIRSKYNNYATYYADSVKDRFTISRDDSQSTAYLQMNSLKTEDTAVYYCVRHGNFGNSYVSWFAYWGQGTLVTVSS VL: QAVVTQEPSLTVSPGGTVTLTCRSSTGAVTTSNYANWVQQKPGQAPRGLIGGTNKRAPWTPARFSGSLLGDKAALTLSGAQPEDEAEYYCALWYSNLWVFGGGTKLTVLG	0.00034

response.value for H15 (antibody, human IgG1, lambda, L234A L235A, V domains shown) VH: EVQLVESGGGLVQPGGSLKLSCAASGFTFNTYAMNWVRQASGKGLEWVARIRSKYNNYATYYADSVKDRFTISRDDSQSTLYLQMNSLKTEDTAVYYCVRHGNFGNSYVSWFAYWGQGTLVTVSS VL: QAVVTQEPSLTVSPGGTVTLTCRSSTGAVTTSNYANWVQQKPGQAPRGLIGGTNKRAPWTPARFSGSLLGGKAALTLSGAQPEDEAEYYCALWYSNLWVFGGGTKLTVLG (field: koff) = 0.000269

response.value for G15 (antibody, human IgG1, lambda, L234A L235A, V domains shown) VH: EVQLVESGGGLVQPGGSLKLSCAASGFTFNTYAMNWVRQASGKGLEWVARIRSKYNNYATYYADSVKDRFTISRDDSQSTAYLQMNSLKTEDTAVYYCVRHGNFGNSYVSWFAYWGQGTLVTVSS VL: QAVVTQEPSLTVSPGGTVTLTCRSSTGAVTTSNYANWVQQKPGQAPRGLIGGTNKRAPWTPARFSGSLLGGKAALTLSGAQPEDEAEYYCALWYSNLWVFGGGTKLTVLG (field: koff) = 0.000461

response.value for A16 (antibody, human IgG1, lambda, L234A L235A, V domains shown) VH: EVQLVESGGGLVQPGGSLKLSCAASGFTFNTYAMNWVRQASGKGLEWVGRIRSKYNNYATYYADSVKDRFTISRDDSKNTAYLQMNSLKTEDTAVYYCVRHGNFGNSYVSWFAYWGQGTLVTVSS VL: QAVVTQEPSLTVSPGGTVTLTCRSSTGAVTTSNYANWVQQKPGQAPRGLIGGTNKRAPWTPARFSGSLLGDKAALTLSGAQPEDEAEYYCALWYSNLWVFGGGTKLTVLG (field: koff) = 0.000243
